System under test: L25A PETNR (Enterobacter cloacae, UniProt P71278, L26A)
Sequence (P71278 entry or part of it L26A): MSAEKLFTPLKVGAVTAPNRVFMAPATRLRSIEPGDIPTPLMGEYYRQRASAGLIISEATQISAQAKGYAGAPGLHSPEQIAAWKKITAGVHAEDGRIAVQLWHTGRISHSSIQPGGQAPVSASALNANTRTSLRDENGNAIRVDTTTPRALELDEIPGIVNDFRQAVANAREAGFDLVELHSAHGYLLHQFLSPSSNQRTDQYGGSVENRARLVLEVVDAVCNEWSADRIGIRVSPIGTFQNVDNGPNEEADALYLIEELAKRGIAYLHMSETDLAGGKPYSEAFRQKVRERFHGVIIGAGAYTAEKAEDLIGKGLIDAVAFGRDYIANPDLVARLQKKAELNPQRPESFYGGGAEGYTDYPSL
Measurement conditions: 15 °C; 10 mM NADPH or 25 mM NADH; pH 7.0
Endpoint name: kobs1 (s⁻¹)
# output: bare number, implied unit s⁻¹

Requested read-out: kobs1. Entry: NC(=O)C1=CN([C@@H]2O[C@H](COP(=O)(O)OP(=O)(O)OC[C@H]3O[C@@H](n4cnc5c(N)ncnc54)[C@H](O)[C@@H]3O)[C@@H](O)[C@H]2O)C=CC1 [NADH]
2.03

Requested read-out: kobs1. Entry: [2H][C@@H]1C=CN([C@@H]2O[C@H](COP(=O)(O)OP(=O)(O)OC[C@H]3O[C@@H](n4cnc5c(N)ncnc54)[C@H](OP(=O)(O)O)[C@@H]3O)[C@@H](O)[C@H]2O)C=C1C(N)=O [(R)-[4-^2H]-NADPH]
4.59

Requested read-out: kobs1. Entry: [2H][C@@H]1C=CN([C@@H]2O[C@H](COP(=O)(O)OP(=O)(O)OC[C@H]3O[C@@H](n4cnc5c(N)ncnc54)[C@H](O)[C@@H]3O)[C@@H](O)[C@H]2O)C=C1C(N)=O [(R)-[4-^2H]-NADH]
0.275

Requested read-out: kobs1. Entry: NC(=O)C1=CN([C@@H]2O[C@H](COP(=O)(O)OP(=O)(O)OC[C@H]3O[C@@H](n4cnc5c(N)ncnc54)[C@H](OP(=O)(O)O)[C@@H]3O)[C@@H](O)[C@H]2O)C=CC1 [NADPH]
34.93
